Assay: qHTS assay to test for compound auto fluorescence at 460 nm (blue) in HEK293 cells (AID 720678)
Settings: blue autofluorescence 405/460 nm; series mostly up to 91.3 µM
The source made the active and inactive calls. Calls follow the shape of the dose curve; as a rule, active = well fitted curve in the direction sought with a large enough effect in the repeat runs; inconclusive = weak or mixed curves; inactive = flat fitted curve, though single readings scatter.
MEASURE: fluorescence, % of triamterene

CCC(C)(C)O; inactive
O=C(O)CCCOc1ccc(Cl)cc1Cl; inactive
CCC(C)(C)c1ccc(O)c(C(C)(C)CC)c1; inactive
CCCCC#N; inactive
O=C(NC(=O)c1cc(F)c(F)cc1Cl)Nc1cc(F)ccc1N1CCC(C(=O)O)CC1; inactive
CC(=O)NNc1ccccc1; inactive
CNC(=O)Oc1cccc(N=CN(C)C)c1; inactive
NNCCO; inactive

For the compound shown here, CCCCCCCCP(=O)(O)O , give the reported fluorescence, % of triamterene.
inactive

Further, for C[N+]1(CCF)[C@@H]2CC[C@H]1CC(OC(=O)C(O)(c1ccccc1)c1ccccc1)C2 (some centres undefined) ?
inactive

Item: COC(=O)C1(O)c2ccccc2-c2ccccc21
inactive

Another compound to check: CC(C)C1(C)N=C(c2ncccc2C(=O)O)NC1=O (centres undefined)
inactive

O=CC=O ?
inactive

* * *

Biological target: Thyrotropin receptor (Homo sapiens)
Experiment: qHTS assay to identify small molecule agonists of the thyroid stimulating hormone receptor (TSHR) signaling pathway (AID 1224843); also: nearly all actives have a fitted effect of over 45% in size
Details: TSHR-HEK293 cells, cAMP HTRF, agonist mode, 30 min; series mostly up to 92.4 µM
Inconclusive results are not listed. Activity calls are given as the source filed them. Calls come from the whole dose curve.
MEASURE: activation

Illustrative cases are given below, each with its answer.
O=CC=O; inactive
CN(C)C(=O)Nc1cccc(OC(=O)NC(C)(C)C)c1; inactive
CCOP(=S)(OCC)Oc1ccc(S(C)=O)cc1 (configuration not stated); inactive
COc1ccccc1N1CCNCC1; inactive
Cc1cnc(C2=NC(C)(C(C)C)C(=O)N2)c(C(=O)O)c1 (configuration not stated); inactive

Consider the compound shown here: CCCCC#N What is its recorded activation?
inactive

Thanks! And CC(C)CCCCCCCOC(=O)c1ccccc1C(=O)OCCCCCCCC(C)C ?
inactive

* * *

Target: Estrogen receptor beta (Homo sapiens) (UniProt Q92731)
Sequence (Q92731 whole entry, looked up): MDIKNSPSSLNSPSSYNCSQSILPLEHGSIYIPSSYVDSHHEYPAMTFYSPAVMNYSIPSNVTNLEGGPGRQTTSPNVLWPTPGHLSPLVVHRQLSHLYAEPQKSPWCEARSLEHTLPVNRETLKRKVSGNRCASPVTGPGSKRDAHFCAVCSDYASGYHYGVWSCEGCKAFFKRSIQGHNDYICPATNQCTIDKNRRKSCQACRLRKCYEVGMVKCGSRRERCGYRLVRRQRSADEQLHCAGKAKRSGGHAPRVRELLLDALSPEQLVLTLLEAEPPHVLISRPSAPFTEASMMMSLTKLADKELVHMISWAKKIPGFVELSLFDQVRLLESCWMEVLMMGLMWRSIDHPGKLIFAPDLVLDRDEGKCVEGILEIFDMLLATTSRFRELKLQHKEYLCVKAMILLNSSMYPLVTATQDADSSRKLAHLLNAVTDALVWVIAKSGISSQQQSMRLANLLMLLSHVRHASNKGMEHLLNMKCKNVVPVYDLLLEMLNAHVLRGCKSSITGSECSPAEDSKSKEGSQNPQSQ
Assay: qHTS assay to identify small molecule agonists of the estrogen receptor beta (ER-beta) signaling pathway (AID 1259377)
Settings: ER-beta-UAS-bla HEK293T, beta-lactamase FRET ratio, 16 h; series mostly up to 92.4 µM
Description: U.S. Tox21 Program National Center for Advancing Translational Sciences [NCATS] NIH Chemical Genomics Center [NCGC] U.S. Environmental Protection Agency [EPA] National Institutes of Environmental Health Sciences [NIEHS] National Toxicology Program [NTP] U.S. Food and Drug Administration [FDA] Tox21 Assay Overview: Estrogen receptor (ER), a nuclear hormone receptor, plays an important role in development, metabolic homeostasis and reproduction. […]
Records with an inconclusive call do not appear. Calls of active or inactive are those of the source. The call rests on the fitted dose curve; in most records, active means well fitted activation curve with a large enough effect in the signal ratio in the repeat runs (not every such curve was filed as active); inconclusive means weak or mixed curves, or effect the other way; inactive means flat fitted curve, though single readings scatter; the % refers to the signal ratio.
Please state which outcome applies, choosing from active, inactive

COc1cc(CC#N)cc(OC)c1OC; inactive
O=P(OCC(Br)CBr)(OCC(Br)CBr)OCC(Br)CBr (stereo not given); inactive
CC(C)(C)c1ccc(CCOc2ncnc3ccccc23)cc1; inactive
C=CCOC(=O)C(C)(C)OC(=O)c1cc(-n2c(=O)cc(C(F)(F)F)n(C)c2=O)ccc1Cl; inactive
CCCCOC(=O)CCC(=O)OCCCC; inactive

Hey, what did the test say about NP(N)(=O)NC(=O)c1ccc(F)cc1 ?
inactive

Try this compound next: CCCCC(CC)CO[N+](=O)[O-] (stereo not given)
inactive
